# System: NCI-H226
# Assay overview: NCI tumour cell line growth inhibition, 48 h
Where a name gives a salt, the structure may show the parent alone. Calls of active or inactive are those of the source. No stated cut-off is given here; in the data, active = GI50 up to about 1.1 µM and inactive = higher.
Measurement type: GI50

Query (compound): CCOC(=O)N[C@@H]1C(CC(=O)OC)O[C@H]2OC(C)(C)O[C@H]21 (some centres undefined) ; field requested: GI50 > 100 µM (inactive)

Query (compound): `CCOc1cc(-c2nc3ccccn3c2/N=C/c2cc(Br)ccc2O)ccc1O` ; field requested: GI50 93.3 µM (inactive)

Query (compound): `Cc1c(/C=N/NC(=O)c2cc(Br)cc(Br)c2O)c(=O)n(-c2ccccc2)n1C` ; field requested: GI50 90.6 µM (inactive)

Query (compound): `O=c1cc[nH]c(=O)[nH]1` ; field requested: GI50 329 µM (inactive)

Query (compound): O=C(O)C12CCC(CC1=O)C2 (centres undefined) ; field requested: GI50 > 100 µM (inactive)

Query (compound): O=c1c2ncn(C3CC(O)C(CO)O3)c2nnn1Cc1ccccc1[N+](=O)[O-] (centres undefined) ; field requested: GI50 43.6 µM (inactive)

Query (compound): NC(CC(=O)O)(Cc1ccccc1)C(=O)O (centres undefined) ; field requested: GI50 > 100 µM (inactive)

Query (compound): `O=C(c1cc(Cl)ccc1Cl)N1CCN(c2cccc(Cl)c2)CC1` ; field requested: GI50 12.8 µM (inactive)

Query (compound): `Cc1cc(/N=C/c2ccc(Cl)cc2)n(-c2ccccc2)n1` ; field requested: GI50 43.6 µM (inactive)

Query (compound): C[N+](C)(C)CC1CCCC1=O (centres undefined) ; field requested: GI50 17.2 µM (inactive)

Query (compound): CC(C)C(C/C=C1/CC(CO)(COC(=O)C2CCCCC2)OC1=O)C(C)C (centres undefined) ; field requested: GI50 21.4 µM (inactive)

Query (compound): `COC(=O)Nc1nc2cc(NC(=O)c3ccc(I)cc3)ccc2[nH]1` ; field requested: GI50 > 100 µM (inactive)

Query (compound): `Clc1ccc(Nc2nn3c(CCCCCCCCc4nnc5sc(Nc6ccc(Cl)cc6)nn45)nnc3s2)cc1` ; field requested: GI50 > 100 µM (inactive)

Query (compound): `O=C(O)CNCc1c2ccccc2[n+]([O-])c2ccccc12` ; field requested: GI50 > 100 µM (inactive)

Query (compound): CN1[C@@H]2C[C@@H](OC(=O)[C@H](CO)c3ccccc3)C[C@H]1[C@@H]1O[C@@H]12 [SCOPOLAMINE HYDROBROMIDE] ; field requested: GI50 > 100 µM (inactive)

Query (compound): `COc1ccc2c3c1O[C@H]1C[C@@H](O)C=C[C@@]31CCN(C)C2` ; field requested: GI50 > 150 µM (inactive)

Query (compound): Nc1ccc(C2=Nc3ccccc3SC(c3ccccc3O)C2)cc1 (centres undefined) ; field requested: GI50 33.3 µM (inactive)

Query (compound): COc1ccccc1N1C(=O)CSC1c1cc(OC)c(OC)c(OC)c1 (centres undefined) ; field requested: GI50 > 50 µM (inactive)

Query (compound): `C=CCN1C(=O)CS/C1=N\NC(=O)CSc1nc2ccccc2c(=O)n1CC` ; field requested: GI50 > 100 µM (inactive)

====

# Test system: RPMI-8226
# Assay overview: NCI tumour cell line growth inhibition, 48 h
Active and inactive are the calls of the source. Rule as the data show it: active = GI50 up to about 1.1 µM and inactive = higher.
Could you please pick one outcome from this set? active, inactive

Give the logged outcome of this assay for the following compound: `O=C(CCc1ccc(O)c(O)c1)NCCc1cc(O)cc(O)c1` inactive

Give the logged outcome of this assay for the following compound: `CC(=O)c1ccc2c(c1)N(CCCN1CCN(CCO)CC1)c1ccccc1C2` inactive

Give the logged outcome of this assay for the following compound: CC(O)C1(CNc2cc(Cl)nc(N)n2)CCC1 (centres undefined) inactive

Give the logged outcome of this assay for the following compound: `COc1cc2c(cc1OC)C(=O)/C(=C/c1cc(OC)c(OC)c(OC)c1)C2` inactive

Give the logged outcome of this assay for the following compound: `C=CC(C)(C)n1cc(C2=C(O)C(=O)C(c3cn(C(C)(C)C=C)c4ccccc34)=C(O)C2=O)c2ccccc21` inactive

Give the logged outcome of this assay for the following compound: `CC(C)OC(=O)NNc1cc(Cl)ccc1Cl` inactive

Give the logged outcome of this assay for the following compound: `COC(=O)Nc1nc2cc(C(=O)c3ccc[nH]3)ccc2[nH]1` active

Give the logged outcome of this assay for the following compound: `Cc1ccc(/C=C(\C#N)c2ccccc2)cc1` inactive

Give the logged outcome of this assay for the following compound: `COc1ccc2c3c1O[C@H]1C[C@@H](O)C=C[C@@]31CCN(C)C2` inactive

Give the logged outcome of this assay for the following compound: c1ccc(CSSSCc2ccccc2)cc1 [DIBENZYL TRISULFIDE] active

Give the logged outcome of this assay for the following compound: `Cc1ccc(C)n2c1nc1ccccc12` inactive

Give the logged outcome of this assay for the following compound: NC(CCc1ncc(-c2ccccc2)s1)C(=O)O (centres undefined) inactive

Give the logged outcome of this assay for the following compound: CC/C=C/C(CC)C/C(C)=C\[C@]1(CC)C[C@H](CC)[C@H](CC(=O)O)OO1 (some centres undefined) active

Give the logged outcome of this assay for the following compound: `Cc1ccc(NC(=O)CCc2nnc(N)o2)cc1` inactive

Give the logged outcome of this assay for the following compound: `Cc1c(C(=O)c2ccccc2C(=O)O)c2ccccc2n1C` inactive

Give the logged outcome of this assay for the following compound: `C=CCNC(=S)N/C=C(\C(=O)OCC)C(=O)C(=O)OCC` inactive

Give the logged outcome of this assay for the following compound: `CCOC(=O)Nc1cc2c(c(N)n1)N=C(c1ccccc1)CN2` active

Give the logged outcome of this assay for the following compound: CC(C)C(CCOS(=O)(=O)O)CCC(C)[C@H]1[C@@H](O)C(O)C2[C@]3(O)C[C@@H](O)C4(O)C[C@@H](O)CC[C@]4(C)C3CC[C@@]21C (some centres undefined) inactive

Give the logged outcome of this assay for the following compound: `Cc1cc(S(=O)(=O)O)c(NC(=O)c2oc3cc(O)ccc3c(=O)c2C)cc1Cl` inactive

Give the logged outcome of this assay for the following compound: `O=C(NC1(c2cc3ccccc3s2)CCCCC1)C1CCC1` inactive

Give the logged outcome of this assay for the following compound: CCOC(=O)C(CO)c1nc2c([nH]c1=O)c(=O)n(C)c(=O)n2C (centres undefined) inactive

Give the logged outcome of this assay for the following compound: CC1CN=C(N(C)C(=O)Nc2ccc(Cl)c(Cl)c2)S1 (centres undefined) inactive

Give the logged outcome of this assay for the following compound: Cc1cccc2c1CC(Cc1ccccc1C(=O)O)C2=O (centres undefined) inactive

Give the logged outcome of this assay for the following compound: CCOC(=O)C1C(=O)C(=O)N2CCc3c([nH]c4ccccc34)C12 (centres undefined) inactive

Give the logged outcome of this assay for the following compound: `CCOP(=O)(/C=C/n1ccc(N)nc1=O)OCC` inactive

Give the logged outcome of this assay for the following compound: `C=C1C[C@@H]2O[C@H]3[C@H]4[C@@H](C[C@@H](C)[C@@H](OC(C)=O)[C@H]42)[C@@H](C)CO[C@@]3(C)[C@H](OC(=O)CCCCCCC)CC1=O` inactive

Give the logged outcome of this assay for the following compound: CC1CC(N2CCOCC2)=Nc2ccccc2N1C (centres undefined) inactive

Give the logged outcome of this assay for the following compound: `c1ccc(CSc2nnc3c4ccccc4c4ccccc4c3n2)cc1` inactive

Give the logged outcome of this assay for the following compound: `C[C@@H]([C@H]1CC[C@@]2(C)[C@@H]3CC[C@@H]4C(=CC3=CC[C@]12C)CC[C@H](N(C)C)C4(C)C)N(C)C` inactive
